// data source = the supplement of paper PMC11061612

Test system: A673 (Ewing's Sarcoma)
Assay: Bliss excess, mean over the matrix (fraction); higher = more synergy
Measurement Label: Bliss excess
Respond numerically, and do not add a unit to the figure.

State, in one line, measured Bliss excess of CS(=O)(=O)CCNCc1ccc(-c2ccc3ncnc(Nc4ccc(OCc5cccc(F)c5)c(Cl)c4)c3c2)o1 [Lapatinib] + C[C@@H](Oc1cc(-c2cnn(C3CCNCC3)c2)cnc1N)c1c(Cl)ccc(F)c1Cl [Crizotinib] (first compound max 10 µM, 7x7, partner max 10 µM) -0.0546

State, in one line, measured Bliss excess of CC1(C)CCC(CN2CCN(c3ccc(C(=O)NS(=O)(=O)c4ccc(NCC5CCOCC5)c([N+](=O)[O-])c4)c(Oc4cnc5[nH]ccc5c4)c3)CC2)=C(c2ccc(Cl)cc2)C1 [Venetoclax] + CS(=O)(=O)CCNCc1ccc(-c2ccc3ncnc(Nc4ccc(OCc5cccc(F)c5)c(Cl)c4)c3c2)o1 [Lapatinib] (first compound max 1 µM, 7x7, partner max 10 µM) -0.0426

State, in one line, measured Bliss excess of N#Cc1cnc(Nc2cc(NC[C@H]3CNCCO3)c(C(F)(F)F)cn2)cn1 [SRA737] + O=c1[nH]cc(F)c(=O)[nH]1 [5-Fluorouracil] (first compound max 10 µM, 7x7, partner max 20 µM) 0.0354

State, in one line, measured Bliss excess of C=CCn1c(=O)c2cnc(Nc3ccc(N4CCN(C)CC4)cc3)nc2n1-c1cccc(C(C)(C)O)n1 [AZD1775] + Nc1ccn([C@@H]2O[C@H](CO)[C@@H](O)C2(F)F)c(=O)n1 [Gemcitabine] (first compound max 1 µM, partner max 0.3 µM) 0.039

State, in one line, measured Bliss excess of Cc1c2c(nn1C)CSCc1cc(n(C)n1)CSc1cc(c3ccccc3c1)OCCCc1c(C(=O)O)n(C)c3c-2c(Cl)ccc13 [AZD5991] + Cc1cc2ncnn2cc1Nc1ncc2c(n1)n(C1CCOCC1)c(=O)n2C [AZD7648] (first compound max 1 µM, 7x7, partner max 10 µM) -0.0515

State, in one line, measured Bliss excess of CN(C)CCCOc1ccc(-c2ccc3ncc4c(c3c2)n(C2CCOCC2)c(=O)n4C)cn1 [AZD0156] + C[C@@H]1COCCN1C2=NC(=NC(=C2)C3(CC3)[S@](=N)(=O)C)C4=C5C=CNC5=NC=C4 [AZD6738] (first compound max 1 µM, 7x7, partner max 10 µM) 0.0153

Next up:
State, in one line, measured Bliss excess of Cc1c2c(nn1C)CSCc1cc(n(C)n1)CSc1cc(c3ccccc3c1)OCCCc1c(C(=O)O)n(C)c3c-2c(Cl)ccc13 [AZD5991] + C1CN(CCC1(C(=O)N[C@@H](CCO)C2=CC=C(C=C2)Cl)N)C3=NC=NC4=C3C=CN4 [Capivasertib] (first compound max 1 µM, 7x7, partner max 3 µM) 0.0001

---

molecules and their reported Bliss excess
Test system: Detroit562 (Head and Neck Carcinoma)
Test: Bliss excess, mean over the matrix (fraction); higher = more synergy
Respond numerically, and do not add a unit to the figure.

State, in one line, measured Bliss excess of Cc1cc2ncnn2cc1Nc1ncc2c(n1)n(C1CCOCC1)c(=O)n2C [AZD7648] + C[C@@H]1COCCN1C2=NC(=NC(=C2)C3(CC3)[S@](=N)(=O)C)C4=C5C=CNC5=NC=C4 [AZD6738] (first compound max 10 µM, 7x7, partner max 10 µM) 0.0217

Next up:
State, in one line, measured Bliss excess of COc1cc2c(cc1OCCCCCOc1cc3c(cc1OC)C(=O)N1C=C(C)C[C@H]1C=N3)N=C[C@@H]1CC(C)=CN1C2=O [SG3199] + O=C(c1cc(Cc2n[nH]c(=O)c3ccccc23)ccc1F)N1CCN(C(=O)C2CC2)CC1 [Olaparib] (first compound max 0.001 µM, 7x7, partner max 10 µM) -0.0252

---

Tested on: HH (T-Cell Non-Hodgkin's Lymphoma)
Assay: combination Emax (second highest fraction inhibited in the dose matrix, 72 h); higher = more inhibition; extreme values may be limits of the assay
Measurement Label: combination Emax
Respond numerically, and do not add a unit to the figure.

These recorded examples may help you get a feel for the data.
State, in one line, measured combination Emax of C[C@@H](c1ccc2nccn2c1)n1nnc2ncc(-c3cnn(C)c3)nc21 [Savolitinib] + Cc1c2c(nn1C)CSCc1cc(n(C)n1)CSc1cc(c3ccccc3c1)OCCCc1c(C(=O)O)n(C)c3c-2c(Cl)ccc13 [AZD5991] (first compound max 1 µM, 7x7, partner max 1 µM) 0.879

State, in one line, measured combination Emax of N#Cc1cnc(Nc2cc(NC[C@H]3CNCCO3)c(C(F)(F)F)cn2)cn1 [SRA737] + O=c1[nH]cc(F)c(=O)[nH]1 [5-Fluorouracil] (first compound max 10 µM, 7x7, partner max 20 µM) 0.188

State, in one line, measured combination Emax of C[C@@H](Nc1cc(F)cc(F)c1)c1cc(C(=O)N(C)C)cc2c(=O)cc(N3CCOCC3)oc12 [AZD8186] + C1CN(CCC1(C(=O)N[C@@H](CCO)C2=CC=C(C=C2)Cl)N)C3=NC=NC4=C3C=CN4 [AZD5363] (first compound max 10 µM, 7x7, partner max 10 µM) 0.299

State, in one line, measured combination Emax of C=CCn1c(=O)c2cnc(Nc3ccc(N4CCN(C)CC4)cc3)nc2n1-c1cccc(C(C)(C)O)n1 [AZD1775] + CCc1c2c(nc3ccc(O)cc13)-c1cc3c(c(=O)n1C2)COC(=O)[C@]3(O)CC [SN-38] (first compound max 1 µM, partner max 0.3 µM) 0.567

State, in one line, measured combination Emax of COc1cc2c(cc1OCCCCCOc1cc3c(cc1OC)C(=O)N1C=C(C)C[C@H]1C=N3)N=C[C@@H]1CC(C)=CN1C2=O [SG3199] + O=C(c1cc(Cc2n[nH]c(=O)c3ccccc23)ccc1F)N1CCN(C(=O)C2CC2)CC1 [Olaparib] (first compound max 0.001 µM, 7x7, partner max 10 µM) 0

Others:
State, in one line, measured combination Emax of C[C@@H]1COCCN1c1cc(C2([S@](C)(=N)=O)CC2)nc(-c2ccnc3[nH]ccc23)n1 [AZD6738] + O=C(c1cc(Cc2n[nH]c(=O)c3ccccc23)ccc1F)N1CCN(C(=O)C2CC2)CC1 [Olaparib] (first compound max 10 µM, 7x7, partner max 10 µM) 0.209

State, in one line, measured combination Emax of NC1(C(=O)N[C@@H](CCO)c2ccc(Cl)cc2)CCN(c2ncnc3[nH]ccc23)CC1 [Capivasertib] + CC(=O)c1c(C)c2cnc(Nc3ccc(N4CCNCC4)cn3)nc2n(C2CCCC2)c1=O [Palbociclib] (first compound max 10 µM, 7x7, partner max 10 µM) 0.426

---

Tested on: NCI-H2052 (Mesothelioma)
Assay: combination Emax (second highest fraction inhibited in the dose matrix, 72 h); higher = more inhibition; extreme values may be limits of the assay
Measurement Label: combination Emax
Respond numerically, and do not add a unit to the figure.

// fetch combination Emax for CC1(C)CCC(CN2CCN(c3ccc(C(=O)NS(=O)(=O)c4ccc(NCC5CCOCC5)c([N+](=O)[O-])c4)c(Oc4cnc5[nH]ccc5c4)c3)CC2)=C(c2ccc(Cl)cc2)C1 [Venetoclax] + COc1cc(Nc2ncc3c(n2)-c2ccc(Cl)cc2C(c2c(F)cccc2OC)=NC3)ccc1C(=O)O [Alisertib] (first compound max 1 µM, 7x7, partner max 10 µM) ; system: NCI-H2052 (Mesothelioma) 0.425

// fetch combination Emax for C[C@@H](c1ccc2nccn2c1)n1nnc2ncc(-c3cnn(C)c3)nc21 [Savolitinib] + Cc1c2c(nn1C)CSCc1cc(n(C)n1)CSc1cc(c3ccccc3c1)OCCCc1c(C(=O)O)n(C)c3c-2c(Cl)ccc13 [AZD5991] (first compound max 1 µM, 7x7, partner max 1 µM) ; system: NCI-H2052 (Mesothelioma) 0.185

Next up:
// fetch combination Emax for CC1(C)CCC(CN2CCN(c3ccc(C(=O)NS(=O)(=O)c4ccc(NCC5CCOCC5)c([N+](=O)[O-])c4)c(Oc4cnc5[nH]ccc5c4)c3)CC2)=C(c2ccc(Cl)cc2)C1 [Venetoclax] + C1CN(CCC1(C(=O)N[C@@H](CCO)C2=CC=C(C=C2)Cl)N)C3=NC=NC4=C3C=CN4 [Capivasertib] (first compound max 1 µM, 7x7, partner max 3 µM) ; system: NCI-H2052 (Mesothelioma) 0.329

---

Tested on: CAL-33 (Oral Cavity Carcinoma)
Test: Bliss excess, mean over the matrix (fraction); higher = more synergy
compounds and their reported Bliss excess
Respond numerically, and do not add a unit to the figure.

State, in one line, measured Bliss excess of Cc1c2c(nn1C)CSCc1cc(n(C)n1)CSc1cc(c3ccccc3c1)OCCCc1c(C(=O)O)n(C)c3c-2c(Cl)ccc13 [AZD5991] + Cn1cnc2c(F)c(Nc3ccc(Br)cc3Cl)c(C(=O)NOCCO)cc21 [Selumetinib] (first compound max 1 µM, 7x7, partner max 3 µM) 0.0814

State, in one line, measured Bliss excess of Cc1c2c(nn1C)CSCc1cc(n(C)n1)CSc1cc(c3ccccc3c1)OCCCc1c(C(=O)O)n(C)c3c-2c(Cl)ccc13 [AZD5991] + CCN(CCO)CCCOc1ccc2c(Nc3cc(CC(=O)Nc4cccc(F)c4)[nH]n3)ncnc2c1 [AZD2811] (first compound max 1 µM, 7x7, partner max 1 µM) 0.0153

State, in one line, measured Bliss excess of COc1nnc2ccc(N3CCC(c4ccc(OCCN5CCN(C)C(=O)[C@H]5C)cc4)CC3)nn12 [AZD5153] + Cc1c2c(nn1C)CSCc1cc(n(C)n1)CSc1cc(c3ccccc3c1)OCCCc1c(C(=O)O)n(C)c3c-2c(Cl)ccc13 [AZD5991] (first compound max 1 µM, 7x7, partner max 1 µM) 0.0009

Others:
State, in one line, measured Bliss excess of Cc1c2c(nn1C)CSCc1cc(n(C)n1)CSc1cc(c3ccccc3c1)OCCCc1c(C(=O)O)n(C)c3c-2c(Cl)ccc13 [AZD5991] + CN(C)CCCOc1ccc(-c2ccc3ncc4c(c3c2)n(C2CCOCC2)c(=O)n4C)cn1 [AZD0156] (first compound max 1 µM, 7x7, partner max 1 µM) 0.0215
